These entries and their values trace back to ChEMBL document CHEMBL1148666.

Biological target: Tyrosine-protein phosphatase non-receptor type 1 (Homo sapiens)
Sequence (P18031 whole entry): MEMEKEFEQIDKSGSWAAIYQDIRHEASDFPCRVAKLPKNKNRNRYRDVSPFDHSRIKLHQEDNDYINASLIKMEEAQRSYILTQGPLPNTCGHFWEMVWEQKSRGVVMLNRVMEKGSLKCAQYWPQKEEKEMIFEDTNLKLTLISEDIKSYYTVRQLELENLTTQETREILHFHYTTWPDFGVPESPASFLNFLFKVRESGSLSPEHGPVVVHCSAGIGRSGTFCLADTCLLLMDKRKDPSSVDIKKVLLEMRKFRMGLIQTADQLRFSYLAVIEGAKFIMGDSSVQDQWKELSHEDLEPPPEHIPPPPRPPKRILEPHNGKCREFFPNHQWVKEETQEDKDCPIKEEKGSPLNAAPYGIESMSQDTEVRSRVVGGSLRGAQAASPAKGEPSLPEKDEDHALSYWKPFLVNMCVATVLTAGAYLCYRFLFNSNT
Experiment: Inhibition of human recombinant PTP1B
measuredMetric: IC50 (µM)
Quick note: give the figure in µM, leave out the unit.

# input What IC50 appears in the records for this compound with Tyrosine-protein phosphatase non-receptor type 1 (Homo sapiens)? CCCCCCCCCCCCCCCC(=O)C1=C(O)[C@@H](CO)OC1=O
# output 4.5

# input Param readout= IC50; system= Tyrosine-protein phosphatase non-receptor type 1 (Homo sapiens); entry= C=C[C@@]1(C)CC=C2C(CCC3[C@](C)(C(=O)O)CCC[C@@]23C)C1 (some centres undefined) ; returns value.
# output 23.5

# input // lookup IC50 | system=Tyrosine-protein phosphatase non-receptor type 1 (Homo sapiens) | key= CC(C)CC(=O)OC[C@H]1C[C@@]23CCC4[C@@](C)(CCC[C@@]4(C)C(=O)O)C2CC[C@@H]1C3 (some centres undefined)
# output 7.1

# input Query the reported IC50 for Tyrosine-protein phosphatase non-receptor type 1 (Homo sapiens); item: C=C1C[C@@]23CC[C@H]4[C@@](C)(CCC[C@@]4(C)C(=O)O)[C@@H]2CC[C@@H]1C3
# output 20.2
